The origin of these recorded values is patent US11413266B2.

- Test system: IL8
- run.description: UVB-induced IL8 release in HaCaT keratinocytes, ELISA
- Format: cell-based, human
- recorded.conditions: 0.3 μM

# sample.smiles, UVB-upregulated IL8 (ELISA)
measured = [
    ("C=C(C)[C@@H]1CCC(C)=C[C@H]1c1c(O)cc(CCCCC)c(C(=O)O)c1O", "pro-inflammatory effects"),
    ("CCCc1cc(O)c(C/C=C(\\C)CCC=C(C)C)c(O)c1", "pro-inflammatory effects"),
]

====

- Test system: human epidermal keratinocytes
- run.description: Summary score, UVB-induced inflammation model (solar dermatitis)
- Assay type: cell-based
- recorded.conditions: 3 μM; sum of +1 anti-inflammatory, 0 no effect, −1 pro-inflammatory; Table 2
observable: SCORE
Form field (numeric): enter value without unit.

Below, 2 compounds whose answers are already recorded.
# compound, SCORE
records = [
    ("C=C(C)[C@@H]1CCC(C)=C[C@H]1c1c(O)cc(CCCCC)c(C(=O)O)c1O", "−1"),
    ("CCCCCc1cc(O)c(C/C=C(\\C)CCC=C(C)C)c(O)c1", 3),
]

stdin: If you can, please state the reported SCORE value of CCCc1cc(O)c(C/C=C(\C)CCC=C(C)C)c(O)c1 .
stdout: 2

stdin: Any idea what SCORE was measured for C=C(C)[C@@H]1CCC(C)=C[C@H]1c1c(O)cc(CCCCC)cc1O ?
stdout: 1

stdin: Bench note: what SCORE did CCCc1cc(O)c2c(c1)OC(C)(C)[C@@H]1CCC(C)=C[C@@H]21 [THCV, Tetrahydrocannabivarin] show?
stdout: 0
